Tested on: KB
Experimental protocol: Cytotoxicity against human KB cells after 72 hrs by SRB assay
Type: functional
Assay conditions: read-out: ED50 (the source's name)
Assay readout: EC50
A bare number is not enough; add the unit after it.

INPUT: Quote EC50 reported for C=C1[C@H](O)C[C@H]2[C@@](C)(COC(C)=O)C[C@H](O)C[C@]2(C)[C@H]1CC/C(C)=C\CO please.
OUTPUT: 19.4 µg/mL

INPUT: Quote EC50 reported for C=C1[C@H](O)C[C@H]2[C@@](C)(COC(C)=O)C[C@H](O)C[C@]2(C)[C@H]1CC/C(C)=C\C=O please.
OUTPUT: 11 µg/mL

INPUT: Quote EC50 reported for Cc1c2ccncc2c(C)c2c1[nH]c1ccccc12 please.
OUTPUT: 0.1 µg/mL

INPUT: Quote EC50 reported for C=C1[C@H](O)C[C@H]2[C@@](C)(COC(C)=O)CC(=O)C[C@]2(C)[C@H]1CC/C(C)=C\CO please.
OUTPUT: 11 µg/mL

====

Tested on: HCT-15
Experimental protocol: Cytotoxicity against human HCT-15 cells after 72 hrs by SRB assay
Format: functional
Assay conditions: HCT-15, 72 h, read-out: ED50 (the source's name)
I'd appreciate it if you could supply EC50 values for the items below.
Your answer should be a plain number; it is taken to be in µg/mL.

INPUT: Quote EC50 reported for C=C1[C@H](O)C[C@H]2[C@@](C)(COC(C)=O)CC(=O)C[C@]2(C)[C@H]1CC/C(C)=C\CO please.
OUTPUT: 11

INPUT: Quote EC50 reported for C=C1[C@H](O)C[C@H]2[C@@](C)(COC(C)=O)C[C@H](O)C[C@]2(C)[C@H]1CC/C(C)=C\C=O please.
OUTPUT: 11

INPUT: Quote EC50 reported for C=C1[C@H](O)C[C@H]2[C@@](C)(COC(C)=O)C[C@H](O)C[C@]2(C)[C@H]1CC/C(C)=C\CO please.
OUTPUT: 8.7

INPUT: Quote EC50 reported for Cc1c2ccncc2c(C)c2c1[nH]c1ccccc12 please.
OUTPUT: 0.17
